test: reporter assay of Huesken 2005; details: siRNA
Oligonucleotides are written 5' to 3', each unit as a sugar letter and its base; * is a phosphorothioate linkage, no mark a phosphodiester; rarer units and linkages stand in square brackets, end groups in braces. Plain capitals give the bases only. d = 2'-deoxy (DNA); r = 2'-OH (RNA)
Use true when the recorded normalised inhibition (eCFP-eYFP dual reporter) is no lower than 70%; use false when it is lower.

[
  {
    "substance": "sense rGrUrCrCrCrUrGrArGrGrArGrCrCrCrUrUrArGdTdT / antisense rCrUrArArGrGrGrCrUrCrCrUrCrArGrGrGrArCdGdG",
    "answerLabel": "true"
  },
  {
    "substance": "sense rUrGrUrGrArCrCrUrCrCrArUrCrUrArCrUrCrUdTdT / antisense rArGrArGrUrArGrArUrGrGrArGrGrUrCrArCrAdGdG",
    "answerLabel": "true"
  },
  {
    "substance": "sense rGrCrCrUrArCrGrGrGrArGrUrCrArArArGrGrUdTdT / antisense rArCrCrUrUrUrGrArCrUrCrCrCrGrUrArGrGrCdGdT",
    "answerLabel": "true"
  },
  {
    "substance": "sense rArCrUrCrCrUrUrCrCrUrUrCrUrCrUrGrArArGdTdT / antisense rCrUrUrCrArGrArGrArArGrGrArArGrGrArGrUdCdC",
    "answerLabel": "false"
  },
  {
    "substance": "sense rGrArGrUrCrArArArGrGrUrCrArCrCrArGrArGdTdT / antisense rCrUrCrUrGrGrUrGrArCrCrUrUrUrGrArCrUrCdCdC",
    "answerLabel": "true"
  },
  {
    "substance": "sense rCrUrUrCrUrGrArGrCrArArUrArUrCrCrCrCrAdTdT / antisense rUrGrGrGrGrArUrArUrUrGrCrUrCrArGrArArGdTdT",
    "answerLabel": "true"
  },
  {
    "substance": "sense rUrGrGrArUrUrUrArGrGrCrUrUrGrArGrGrGrAdTdT / antisense rUrCrCrCrUrCrArArGrCrCrUrArArArUrCrCrAdGdA",
    "answerLabel": "true"
  },
  {
    "substance": "sense rUrGrUrGrGrArCrUrCrUrGrArGrArArGrArArAdTdT / antisense rUrUrUrCrUrUrCrUrCrArGrArGrUrCrCrArCrAdAdG",
    "answerLabel": "true"
  },
  {
    "substance": "sense rCrGrGrGrGrCrUrGrArGrArArArGrUrUrCrGrUdTdT / antisense rArCrGrArArCrUrUrUrCrUrCrArGrCrCrCrCrGdGdG",
    "answerLabel": "true"
  },
  {
    "substance": "sense rUrUrUrArGrGrGrUrGrCrCrCrArCrUrUrArGrGdTdT / antisense rCrCrUrArArGrUrGrGrGrCrArCrCrCrUrArArAdAdG",
    "answerLabel": "false"
  },
  {
    "substance": "sense rCrCrUrGrUrCrArGrGrGrGrUrCrGrGrArGrUrGdTdT / antisense rCrArCrUrCrCrGrArCrCrCrCrUrGrArCrArGrGdCdA",
    "answerLabel": "true"
  },
  {
    "substance": "sense rCrCrUrUrGrGrArArArCrGrArArCrCrArArGrCdTdT / antisense rGrCrUrUrGrGrUrUrCrGrUrUrUrCrCrArArGrGdGdA",
    "answerLabel": "true"
  },
  {
    "substance": "sense rCrGrUrUrUrCrArUrUrGrUrUrCrCrUrGrUrGrAdTdT / antisense rUrCrArCrArGrGrArArCrArArUrGrArArArCrGdAdC",
    "answerLabel": "false"
  },
  {
    "substance": "sense rUrArGrGrCrUrUrGrArGrGrGrArGrArGrUrUrGdTdT / antisense rCrArArCrUrCrUrCrCrCrUrCrArArGrCrCrUrAdAdA",
    "answerLabel": "true"
  },
  {
    "substance": "sense rUrGrCrCrUrCrCrCrUrUrGrArGrGrCrGrUrCrUdTdT / antisense rArGrArCrGrCrCrUrCrArArGrGrGrArGrGrCrAdAdT",
    "answerLabel": "false"
  },
  {
    "substance": "sense rArGrUrGrArUrCrCrCrGrGrGrGrCrUrGrArGrAdTdT / antisense rUrCrUrCrArGrCrCrCrCrGrGrGrArUrCrArCrUdGdG",
    "answerLabel": "true"
  }
]

* * *

biological target: CDC34; experiment: reporter assay of Huesken 2005; details: siRNA
Oligonucleotides are given in HELM: sugar(base)linkage, 5' to 3'; d 2'-deoxyribose, r ribose, m 2'-O-methylribose, p phosphate. ss, as = sense and antisense strand
Use MET when the recorded normalised inhibition (eCFP-eYFP dual reporter) is no lower than 70%; use NOT MET when it is lower.

[
  {
    "substance": "RNA1{r(A)p.r(A)p.r(C)p.r(G)p.r(U)p.r(G)p.r(G)p.r(A)p.r(C)p.r(G)p.r(C)p.r(C)p.r(U)p.r(C)p.r(C)p.r(G)p.r(U)p.r(G)p.r(A)p.d(T)p.d(T)}|RNA2{r(U)p.r(C)p.r(A)p.r(C)p.r(G)p.r(G)p.r(A)p.r(G)p.r(G)p.r(C)p.r(G)p.r(U)p.r(C)p.r(C)p.r(A)p.r(C)p.r(G)p.r(U)p.r(U)p.d(T)p.d(G)}$$$RNA1{StrandType:ss}|RNA2{StrandType:as}$",
    "experimentalTarget": "CDC34",
    "answerLabel": "NOT MET"
  },
  {
    "substance": "RNA1{r(G)p.r(A)p.r(G)p.r(U)p.r(A)p.r(C)p.r(U)p.r(G)p.r(C)p.r(G)p.r(U)p.r(G)p.r(A)p.r(A)p.r(G)p.r(A)p.r(C)p.r(C)p.r(A)p.d(T)p.d(T)}|RNA2{r(U)p.r(G)p.r(G)p.r(U)p.r(C)p.r(U)p.r(U)p.r(C)p.r(A)p.r(C)p.r(G)p.r(C)p.r(A)p.r(G)p.r(U)p.r(A)p.r(C)p.r(U)p.r(C)p.d(G)p.d(G)}$$$RNA1{StrandType:ss}|RNA2{StrandType:as}$",
    "experimentalTarget": "CDC34",
    "answerLabel": "MET"
  },
  {
    "substance": "RNA1{r(A)p.r(A)p.r(G)p.r(A)p.r(C)p.r(C)p.r(A)p.r(A)p.r(G)p.r(G)p.r(C)p.r(G)p.r(C)p.r(C)p.r(G)p.r(G)p.r(C)p.r(G)p.r(C)p.d(T)p.d(T)}|RNA2{r(G)p.r(C)p.r(G)p.r(C)p.r(C)p.r(G)p.r(G)p.r(C)p.r(G)p.r(C)p.r(C)p.r(U)p.r(U)p.r(G)p.r(G)p.r(U)p.r(C)p.r(U)p.r(U)p.d(C)p.d(A)}$$$RNA1{StrandType:ss}|RNA2{StrandType:as}$",
    "experimentalTarget": "CDC34",
    "answerLabel": "NOT MET"
  },
  {
    "substance": "RNA1{r(A)p.r(G)p.r(G)p.r(U)p.r(G)p.r(G)p.r(A)p.r(A)p.r(C)p.r(C)p.r(C)p.r(C)p.r(A)p.r(C)p.r(G)p.r(C)p.r(A)p.r(G)p.r(A)p.d(T)p.d(T)}|RNA2{r(U)p.r(C)p.r(U)p.r(G)p.r(C)p.r(G)p.r(U)p.r(G)p.r(G)p.r(G)p.r(G)p.r(U)p.r(U)p.r(C)p.r(C)p.r(A)p.r(C)p.r(C)p.r(U)p.d(C)p.d(T)}$$$RNA1{StrandType:ss}|RNA2{StrandType:as}$",
    "experimentalTarget": "CDC34",
    "answerLabel": "MET"
  },
  {
    "substance": "RNA1{r(G)p.r(C)p.r(G)p.r(A)p.r(U)p.r(C)p.r(U)p.r(A)p.r(U)p.r(A)p.r(C)p.r(A)p.r(A)p.r(C)p.r(U)p.r(G)p.r(G)p.r(G)p.r(A)p.d(T)p.d(T)}|RNA2{r(U)p.r(C)p.r(C)p.r(C)p.r(A)p.r(G)p.r(U)p.r(U)p.r(G)p.r(U)p.r(A)p.r(U)p.r(A)p.r(G)p.r(A)p.r(U)p.r(C)p.r(G)p.r(C)p.d(C)p.d(C)}$$$RNA1{StrandType:ss}|RNA2{StrandType:as}$",
    "experimentalTarget": "CDC34",
    "answerLabel": "MET"
  },
  {
    "substance": "RNA1{r(A)p.r(C)p.r(C)p.r(A)p.r(U)p.r(U)p.r(C)p.r(U)p.r(C)p.r(C)p.r(U)p.r(G)p.r(A)p.r(G)p.r(U)p.r(G)p.r(U)p.r(G)p.r(A)p.d(T)p.d(T)}|RNA2{r(U)p.r(C)p.r(A)p.r(C)p.r(A)p.r(C)p.r(U)p.r(C)p.r(A)p.r(G)p.r(G)p.r(A)p.r(G)p.r(A)p.r(A)p.r(U)p.r(G)p.r(G)p.r(U)p.d(C)p.d(C)}$$$RNA1{StrandType:ss}|RNA2{StrandType:as}$",
    "experimentalTarget": "CDC34",
    "answerLabel": "MET"
  },
  {
    "substance": "RNA1{r(G)p.r(A)p.r(C)p.r(C)p.r(A)p.r(U)p.r(U)p.r(C)p.r(U)p.r(C)p.r(C)p.r(U)p.r(G)p.r(A)p.r(G)p.r(U)p.r(G)p.r(U)p.r(G)p.d(T)p.d(T)}|RNA2{r(C)p.r(A)p.r(C)p.r(A)p.r(C)p.r(U)p.r(C)p.r(A)p.r(G)p.r(G)p.r(A)p.r(G)p.r(A)p.r(A)p.r(U)p.r(G)p.r(G)p.r(U)p.r(C)p.d(C)p.d(T)}$$$RNA1{StrandType:ss}|RNA2{StrandType:as}$",
    "experimentalTarget": "CDC34",
    "answerLabel": "NOT MET"
  },
  {
    "substance": "RNA1{r(C)p.r(G)p.r(A)p.r(G)p.r(G)p.r(G)p.r(C)p.r(G)p.r(A)p.r(U)p.r(C)p.r(U)p.r(A)p.r(U)p.r(A)p.r(C)p.r(A)p.r(A)p.r(C)p.d(T)p.d(T)}|RNA2{r(G)p.r(U)p.r(U)p.r(G)p.r(U)p.r(A)p.r(U)p.r(A)p.r(G)p.r(A)p.r(U)p.r(C)p.r(G)p.r(C)p.r(C)p.r(C)p.r(U)p.r(C)p.r(G)p.d(T)p.d(C)}$$$RNA1{StrandType:ss}|RNA2{StrandType:as}$",
    "experimentalTarget": "CDC34",
    "answerLabel": "MET"
  }
]
